system: Cullin-3 (CUL3) neddylation; test: AlphaLISA assay for Cullin-3 (CUL3) neddylation in TF 1 cells; format: cell-based; conditions: Homo sapiens, TF-1, 3 h, 3 hours treatment
pIC50: −log10 of the molar value.
observed_property: pIC50

I am curious: what pIC50 value has been reported for CCN1C(=O)[C@@H](NC(=O)c2cccc(C(F)(F)F)c2)[C@@H](c2ccc(F)cc2)c2c(C(=O)N(C)[C@H](C#N)CCN3CCOCC3)nn(-c3ccccc3)c21 ? ≥ 7.00

I am curious: what pIC50 value has been reported for CCN1C(=O)[C@@H](NC(=O)c2cccc(C(F)(F)F)c2)[C@@H](C2CC2)c2c(C(=O)N(C)[C@@H](C#N)CCN(C)C)nn(C3CCOCC3)c21 ? ≥ 7.00

I am curious: what pIC50 value has been reported for CCN1C(=O)[C@@H](NC(=O)c2cccc(C(F)(F)F)c2)[C@@H](c2ccc(F)cc2)c2c(C(=O)N3CCN(C4COC4)CC3C#N)nn(-c3ccccc3)c21 (stereo partly drawn) ? ≥ 7.00
